molecular target: Alpha1A (Homo sapiens, UniProt P35348); construct: purchased NIMH Psychoactive Drug Screening Program (PDSP); assay: PDSP primary binding Alpha1A; details: 1.5 h; primary binding, 10,000 nM; last figure of the line = mean of the 4 before it; read-out: Alpha1A, PDSP raw data, mean
Sequence (P35348 whole entry): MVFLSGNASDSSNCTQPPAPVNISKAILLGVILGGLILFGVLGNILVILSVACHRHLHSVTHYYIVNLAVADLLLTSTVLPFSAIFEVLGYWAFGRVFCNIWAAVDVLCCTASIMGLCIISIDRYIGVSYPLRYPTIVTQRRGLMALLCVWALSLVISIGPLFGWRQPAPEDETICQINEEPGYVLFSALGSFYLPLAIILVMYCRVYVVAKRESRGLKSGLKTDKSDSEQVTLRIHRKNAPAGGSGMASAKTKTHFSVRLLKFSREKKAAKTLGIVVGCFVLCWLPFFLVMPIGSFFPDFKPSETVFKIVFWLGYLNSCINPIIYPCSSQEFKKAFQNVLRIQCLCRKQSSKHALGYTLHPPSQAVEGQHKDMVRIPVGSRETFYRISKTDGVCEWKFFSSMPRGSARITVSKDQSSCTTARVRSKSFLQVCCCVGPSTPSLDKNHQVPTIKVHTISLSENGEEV
PROPERTY_MEASURED: inhibition at 10 µM (%)
Numbers only, in %.

ITEM_SMILES | PROPERTY_MEASURED | READOUT_VALUE
C[C@H]1N=C(c2ccccc2F)c2cc(-c3ccccc3)ccc2-n2cnc(C(=O)N(C)C)c21 | inhibition at 10 µM | -4.47
C#Cc1ccc2c(c1)C(c1ccccn1)=N[C@@H](C)c1c(C(=O)NC)ncn1-2 | inhibition at 10 µM | -5.28
C#Cc1ccc2c(c1)C(c1ccccc1Cl)=N[C@H](C)c1c(C(=O)N(C)CC)ncn1-2 | inhibition at 10 µM | 4.97

Let us examine a further case.
I'd like to know its inhibition at 10 µM. The compound in question is "C[C@H]1N=C(c2ccccc2F)c2cc(Cl)ccc2-n2cnc(-c3nc(C4CC4)no3)c21" 1.65

Provenance of the data: paper PMC10303271
